Biological target: Cellular tumor antigen p53 (Homo sapiens) (UniProt P04637)
Sequence (P04637 whole entry, looked up): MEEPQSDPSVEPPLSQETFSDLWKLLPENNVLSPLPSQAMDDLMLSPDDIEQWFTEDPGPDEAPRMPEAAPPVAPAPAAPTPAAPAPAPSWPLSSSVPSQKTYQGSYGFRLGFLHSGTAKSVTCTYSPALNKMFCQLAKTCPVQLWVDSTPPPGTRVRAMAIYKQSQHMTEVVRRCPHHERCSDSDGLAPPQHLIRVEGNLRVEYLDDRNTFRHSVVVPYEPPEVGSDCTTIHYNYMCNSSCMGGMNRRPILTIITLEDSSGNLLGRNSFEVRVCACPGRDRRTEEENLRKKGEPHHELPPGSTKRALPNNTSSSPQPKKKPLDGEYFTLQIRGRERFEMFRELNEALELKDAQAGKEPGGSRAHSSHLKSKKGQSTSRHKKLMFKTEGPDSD
Assay: TOX21_p53_BLA_p3_ratio: Tox21 HCT-116 p53 Agonism Beta-lactamase Assay, Ratio, Phase 3 (AID 2283596)
Inconclusive results are not listed. Activity calls are given as the source filed them. Rule for the calls: active = hit-call score of the fitted dose curve at least 0.9, where 1 is the maximum; inconclusive = response in the unintended direction; inactive = score below 0.9.
Outcomes: true (1) for active, false (0) for inactive

compound	measurementTarget	labelValue
NCCCC[C@H](NC(=O)[C@@H]1CCCN1C(=O)[C@@H]1CSSC[C@H](N)C(=O)N[C@@H](Cc2ccc(O)cc2)C(=O)N[C@@H](Cc2ccccc2)C(=O)N[C@@H](CCC(N)=O)C(=O)N[C@@H](CC(N)=O)C(=O)N1)C(=O)NCC(N)=O	Cellular tumor antigen p53 (Homo sapiens) (UniProt P04637)	false (0)
CC(C)(C)NCC(O)c1cc(O)cc(O)c1 (stereo not drawn)	Cellular tumor antigen p53 (Homo sapiens) (UniProt P04637)	false (0)
O=S(=O)(O)Oc1ccc(C(c2ccc(OS(=O)(=O)O)cc2)c2ccccn2)cc1	Cellular tumor antigen p53 (Homo sapiens) (UniProt P04637)	false (0)
CCc1cnc(C(=O)O)c(C(=O)O)c1	Cellular tumor antigen p53 (Homo sapiens) (UniProt P04637)	false (0)
C1CC(COCC2CO2)CCC1COCC1CO1 (stereo not drawn)	Cellular tumor antigen p53 (Homo sapiens) (UniProt P04637)	false (0)
C[C@H](O)CN(C)C	Cellular tumor antigen p53 (Homo sapiens) (UniProt P04637)	false (0)
CCCCCCCCCCCCCCCCC(C(=O)O)C(O)(CC(=O)O)C(=O)O (stereo not drawn)	Cellular tumor antigen p53 (Homo sapiens) (UniProt P04637)	true (1)
CCn1cc(C(=O)O)c(=O)c2cc3c(cc21)OCO3	Cellular tumor antigen p53 (Homo sapiens) (UniProt P04637)	false (0)
NS(=O)(=O)c1cc(C2(O)NC(=O)c3ccccc32)ccc1Cl (stereo not drawn)	Cellular tumor antigen p53 (Homo sapiens) (UniProt P04637)	false (0)
Cc1ccc(NC(=O)N(C)C)cc1NC(=O)N(C)C	Cellular tumor antigen p53 (Homo sapiens) (UniProt P04637)	false (0)
C=CC(=O)CCCCC	Cellular tumor antigen p53 (Homo sapiens) (UniProt P04637)	false (0)
Nc1ccc(NC(=O)c2ccc(N)cc2)cc1	Cellular tumor antigen p53 (Homo sapiens) (UniProt P04637)	false (0)
CCCCN(CCCC)CC(O)c1cc(Cl)cc2c1-c1ccc(Cl)cc1/C2=C/c1ccc(Cl)cc1 (stereo not drawn)	Cellular tumor antigen p53 (Homo sapiens) (UniProt P04637)	false (0)
CNCc1ccccc1	Cellular tumor antigen p53 (Homo sapiens) (UniProt P04637)	false (0)
CC(C)(C)NCC(O)c1ccc(O)c(CO)c1 (stereo not drawn)	Cellular tumor antigen p53 (Homo sapiens) (UniProt P04637)	false (0)
Nc1nc2c(c(=O)[nH]1)N(C=O)C(CNc1ccc(C(=O)N[C@@H](CCC(=O)O)C(=O)O)cc1)CN2 (stereo partly drawn)	Cellular tumor antigen p53 (Homo sapiens) (UniProt P04637)	false (0)
CC(C)COC(=O)COc1cc(Cl)c(Cl)cc1Cl	Cellular tumor antigen p53 (Homo sapiens) (UniProt P04637)	false (0)
CO[C@@H]1[C@@H](O[C@@H]2O[C@H](C)[C@@H](O[C@H]3C[C@](C)(O)[C@@H](O)[C@H](C)O3)[C@H](N(C)C)[C@H]2O)[C@H](CC=O)C[C@@H](C)[C@H](O[C@H]2CC[C@H](N(C)C)[C@@H](C)O2)/C=C\C=C\C[C@@H](C)OC(=O)C[C@H]1O	Cellular tumor antigen p53 (Homo sapiens) (UniProt P04637)	false (0)
CSc1ccc2c(c1)C(N1CCN(C)CC1)Cc1ccccc1S2 (stereo not drawn)	Cellular tumor antigen p53 (Homo sapiens) (UniProt P04637)	false (0)
OC(CCN1CCCCC1)(c1ccccc1)C1CC2C=CC1C2 (stereo not drawn)	Cellular tumor antigen p53 (Homo sapiens) (UniProt P04637)	false (0)
Cc1cc(C2CCCCC2)n(O)c(=O)c1	Cellular tumor antigen p53 (Homo sapiens) (UniProt P04637)	false (0)
C=C1CC2C3CCC4=CC(=O)C=C[C@]4(C)[C@@]3(F)[C@@H](O)C[C@]2(C)[C@@]1(O)C(=O)COC(C)=O (stereo partly drawn)	Cellular tumor antigen p53 (Homo sapiens) (UniProt P04637)	false (0)
[Cl-].[Cl-].[NH2-].[NH2-].[Pt+4]	Cellular tumor antigen p53 (Homo sapiens) (UniProt P04637)	false (0)
